viability, T/C listing for selected compounds.
- Tested on: 521955-158-R2-J5-PDC complex spheroid viability;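 further: spheroids exposed to agents for one week before reading; 100% = DMSO vehicle control viability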
- measurement notes: Anticancer human tumor 521955-158-R2-J5-PDC patient-derived pancreatic carcinoma cell line growth inhibition [GQUAD]
- experimental conditions: second compound 1 µM; first compound 0.316 µM; stronger effect = lower value
- Text: DNA G-quadruplex Stabilizer Agents in Combinations in Complex Spheroids A high-throughput screen of multi-cell type tumor spheroids was designed to identify active combinations of DNA G-quadruplex stabilizer agents and targeted small molecules. […] Compounds. […] If the clinical Cmax for an agent had not been determined, the highest concentration tested was 10 microM. […]
measurement kind: viability, T/C (%)

compound	measurement kind	units	reported value
Cc1cccc(N(C)C(=O)C2C(O)CCN2c2nc(C)cc(C(F)(F)F)c2C#N)c1 (stereo not given) + Cc1cnc(CNC(=O)c2c(=O)c3ccc(N4CCCN(C)CC4)nc3n3c2sc2ccccc23)cn1	viability, T/C	%	22.7
COc1ccc([C@@H](O)c2cc(-c3ncnc4cc(N5CCOCC5)ccc34)c(F)cc2Cl)nn1 + Cc1[nH]c2ccc(F)cc2c1-c1nc2c3cccnc3c3ncccc3c2[nH]1	viability, T/C	%	88.5
CCCS(=O)(=O)Nc1ccc(F)c(C(=O)c2c[nH]c3ncc(-c4ccc(Cl)cc4)cc23)c1F + CN(C)c1ccc(Nc2c3ccc(NC(=O)CCN4CCCC4)cc3nc3cc(NC(=O)CCN4CCCC4)ccc23)cc1	viability, T/C	%	76.8
CC(C)(O)C1CCC(Nc2ccc3ncc(-c4cccc(C(F)(F)F)c4)n3n2)CC1 (stereo not given) + CN(C)c1ccc(Nc2c3ccc(NC(=O)CCN4CCCC4)cc3nc3cc(NC(=O)CCN4CCCC4)ccc23)cc1	viability, T/C	%	95.8
CC(C)n1c(=O)n(C)c2cnc3cc(F)c(-c4ccc(OCCCN5CCCCC5)nc4)cc3c21 + Cc1cnc(CNC(=O)c2c(=O)c3ccc(N4CCCN(C)CC4)nc3n3c2sc2ccccc23)cn1	viability, T/C	%	19.5
COc1ncnc(C2CC2)c1-c1ncc2cnn(Cc3ccc(-c4nc(C(F)(F)F)cn4C(C)C)cc3)c2n1 + Cc1cnc(CNC(=O)c2c(=O)c3ccc(N4CCCN(C)CC4)nc3n3c2sc2ccccc23)cn1	viability, T/C	%	17
O=C(c1cc(Cc2n[nH]c(=O)c3ccccc23)ccc1F)N1CCN(C(=O)C2CC2)CC1 + Cc1cnc(CNC(=O)c2c(=O)c3ccc(N4CCCN(C)CC4)nc3n3c2sc2ccccc23)cn1	viability, T/C	%	22.8
COc1cc(C2c3cc4c(cc3C(OC3OC5COC(C)OC5C(O)C3O)C3COC(=O)C23)OCO4)cc(OC)c1O (stereo not given) + CN(C)c1ccc(Nc2c3ccc(NC(=O)CCN4CCCC4)cc3nc3cc(NC(=O)CCN4CCCC4)ccc23)cc1	viability, T/C	%	55.8
O=C(c1cc(Cc2n[nH]c(=O)c3ccccc23)ccc1F)N1CCN(C(=O)C2CC2)CC1 + CN(C)c1ccc(Nc2c3ccc(NC(=O)CCN4CCCC4)cc3nc3cc(NC(=O)CCN4CCCC4)ccc23)cc1	viability, T/C	%	92.3
CC1COCCN1c1cc(-c2ccnn2C)c2ccnc(-c3ccn[nH]3)c2n1 (stereo not given) + CN(C)c1ccc(Nc2c3ccc(NC(=O)CCN4CCCC4)cc3nc3cc(NC(=O)CCN4CCCC4)ccc23)cc1	viability, T/C	%	16
CC1COCCN1c1cc(C2(O)CC3CCC(C2)O3)c2cnn(-c3ccn[nH]3)c2n1 (stereo not given) + Cc1cnc(CNC(=O)c2c(=O)c3ccc(N4CCCN(C)CC4)nc3n3c2sc2ccccc23)cn1	viability, T/C	%	11.1
COc1ccc([C@@H](O)c2cc(-c3ncnc4cc(N5CCOCC5)ccc34)c(F)cc2Cl)nn1 + Cc1cnc(CNC(=O)c2c(=O)c3ccc(N4CCCN(C)CC4)nc3n3c2sc2ccccc23)cn1	viability, T/C	%	18.4
Cc1[nH]c2ccccc2c1CCNCc1ccc(/C=C/C(=O)NO)cc1 + Cc1[nH]c2ccc(F)cc2c1-c1nc2c3cccnc3c3ncccc3c2[nH]1	viability, T/C	%	27.9
Cn1ncnc1[C@H]1c2n[nH]c(=O)c3cc(F)cc(c23)N[C@@H]1c1ccc(F)cc1 + Cc1[nH]c2ccc(F)cc2c1-c1nc2c3cccnc3c3ncccc3c2[nH]1	viability, T/C	%	73.6
C#Cc1c(F)ccc2cc(O)cc(-c3ncc4c(N5CC6CCC(C5)N6)nc(OCC56CCCN5CC(F)C6)nc4c3F)c12 (stereo not given) + Cc1[nH]c2ccc(F)cc2c1-c1nc2c3cccnc3c3ncccc3c2[nH]1	viability, T/C	%	68.2
